Molecular target: [3H]-emopamil binding site (Cavia porcellus)
Construct: from tissue; host or cells: guinea pig liver membranes
Sequence (Q60490 whole entry): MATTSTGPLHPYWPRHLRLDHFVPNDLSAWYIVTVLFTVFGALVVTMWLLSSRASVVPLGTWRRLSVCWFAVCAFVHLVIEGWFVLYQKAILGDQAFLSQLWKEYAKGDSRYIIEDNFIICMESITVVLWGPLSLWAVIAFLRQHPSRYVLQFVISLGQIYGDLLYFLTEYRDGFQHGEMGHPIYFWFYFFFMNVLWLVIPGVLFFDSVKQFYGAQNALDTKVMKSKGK
Assay: 3H-Emopamil binding to guinea pig liver membranes
Details: displacement of 0.96 nM (-)-3H-emopamil, 60 minutes at 37° C.
endpoint-name: IC50

Prompt line: // IC50 lookup, key: CN1CCCN([C@H]2CCCc3ccccc32)CC1
Response line: 0.017 µM

====

Where a name gives a salt, the structure may show the parent alone.
endpoint-name: melting point

A selection of reference data follows.
| compound | melting point |
| --- | --- |
| c1ccc2c(c1)CCCC2N1CCCNCC1 (stereo not drawn) (as salt: salt) | 107 to 109.4 °C |
| CN1CCCN(C2CCCc3ccccc32)CC1 (stereo not drawn) (as salt: maleate) | 125.4 to 126.3 °C |

Prompt line: Could you share which melting point value was measured for CCc1ccc2c(c1)CCCC2N1CCCN(C)CC1 (stereo not drawn) (as salt: salt) ?
Response line: 131.5 to 132.8 °C

====

Where a name gives a salt, the structure may show the parent alone.
In this section we review reported melting point values for a set of compounds.

Before answering, review these 2 worked examples.
| compound | result |
| --- | --- |
| CC(C)N1CCCN(C2CCCc3ccccc32)CC1 (stereo not drawn) (as salt: hydrochloride) [Example 13] | 149.5 to 151 °C |
| CN1CCCN(C2CCCc3cc(F)ccc32)CC1 (stereo not drawn) (as salt: salt) [Example 16] | 78.8 to 79.5 °C |

Prompt line: Which melting point is reported for this compound? COc1cccc2c1CCCC2N1CCCN(C)CC1 (stereo not drawn) (as salt: hydrochloride) [Example 7]
Response line: 172.2 to 176.6 °C
